- study.system: JAK1 (recombinant purified GST-tagged catalytic domain) (Homo sapiens (Human), UniProt P23458)
- Sequence (P23458 875-1153): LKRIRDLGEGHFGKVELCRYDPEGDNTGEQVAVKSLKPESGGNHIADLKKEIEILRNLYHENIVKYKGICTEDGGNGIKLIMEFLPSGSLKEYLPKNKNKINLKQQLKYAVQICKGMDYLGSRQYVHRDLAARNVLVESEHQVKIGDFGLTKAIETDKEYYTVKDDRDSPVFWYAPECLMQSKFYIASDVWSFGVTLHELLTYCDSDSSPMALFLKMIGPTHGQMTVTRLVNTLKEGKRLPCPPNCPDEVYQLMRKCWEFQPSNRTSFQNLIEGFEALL
- protocol.notes: Jak Biochemical HTRF Assay (JAK1)
- experimental.conditions: [ATP] 31.8 μM
metric: log10 of IC50 (log10 of the value in nM)
Heads up, the numbers here are log10 of IC50 in nM units.

N#CC[C@@]1(n2nc(Nc3ccc(C(N4CCCC4)C(F)(F)F)cc3)c3c(=O)[nH]ccc32)CCCOC1 (single isomer, unassigned) [Example 5-199] has a reported log10 of IC50 of -0.82

COC(=O)N1CCC(CC#N)(n2nc(Nc3ccc(C(C)(O)C(F)(F)F)cc3)c3c(=O)[nH]ccc32)CC1 (single isomer, unassigned) [Example 5-141] has a reported log10 of IC50 of -0.74

CC(C)(C)S(=O)(=O)c1ccc(Nc2nn([C@]3(CC#N)CCCOC3)c3cc[nH]c(=O)c23)cc1 has a reported log10 of IC50 of -0.77

CN(C(C)(C)C)S(=O)(=O)c1ccc(Nc2nn(C3(CC#N)CCCC3)c3cc[nH]c(=O)c23)cc1 has a reported log10 of IC50 of -0.15

CC(C)(C)OC(=O)N1CCC(CC#N)(n2nc(NCC3CC3)c3c(=O)[nH]ccc32)CC1 has a reported log10 of IC50 of 1.70

Cc1cc(Nc2nn([C@]3(CC#N)CCCOC3)c3cc[nH]c(=O)c23)ccc1C(=O)N1CC[C@@H](F)C1 has a reported log10 of IC50 of -0.48

* * *

- study.system: JAK1 (recombinant purified GST-tagged catalytic domain) (Homo sapiens (Human))
- protocol.notes: Jak Biochemical HTRF Assay (JAK1)
- experimental.conditions: [ATP] 31.8 μM
metric: IC50 (nM)
Number in nM, nothing else.

COC(=O)N1CCC(CC#N)(n2nc(Nc3ccc(F)cc3)c3c(=O)[nH]ccc32)CC1 [Example 5-146] has a reported IC50 of 0.3

CC(C)(C)OC(=O)[C@@H]1CC[C@@](CC#N)(n2nc(Nc3ccc([C@@H](N)C(F)(F)F)cc3)c3c(=O)[nH]ccc32)CO1 (single isomer, unassigned) [Example 5-51] has a reported IC50 of 0.18

Cc1cccc(Nc2nn(C3(CC#N)CCN(C(=O)OC(C)(C)C)CC3)c3cc[nH]c(=O)c23)c1 [Example 5-65] has a reported IC50 of 0.21

Cc1cc(Nc2nn([C@]3(CC#N)CC[C@@H](C(=O)OC(C)(C)C)OC3)c3cc[nH]c(=O)c23)ccc1-n1cccn1 [Example 5-219] has a reported IC50 of 0.13

* * *

- study.system: JAK2 (recombinant purified GST-tagged catalytic domain) (Homo sapiens (Human), UniProt O60674)
- Sequence (O60674 849-1124): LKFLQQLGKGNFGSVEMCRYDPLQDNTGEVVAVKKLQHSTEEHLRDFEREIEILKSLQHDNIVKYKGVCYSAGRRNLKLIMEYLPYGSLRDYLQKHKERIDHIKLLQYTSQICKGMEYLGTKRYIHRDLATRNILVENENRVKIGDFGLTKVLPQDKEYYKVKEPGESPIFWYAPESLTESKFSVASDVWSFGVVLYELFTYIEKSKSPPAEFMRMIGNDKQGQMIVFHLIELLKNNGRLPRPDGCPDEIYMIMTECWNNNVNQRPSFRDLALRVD
- protocol.notes: Jak Biochemical HTRF Assay (JAK2)
- experimental.conditions: [ATP] 8.5 μM
metric: log10(IC50) (log10 of the value in nM)
Heads up, the numbers here are log10 of IC50 in nM units.

CC(C)(C)OC(=O)[C@@H]1CC[C@@](CC#N)(n2nc(Nc3ccnc(F)c3)c3c(=O)[nH]ccc32)CO1 has a reported log10(IC50) of 0.35

Cc1cc(Nc2nn([C@]3(CC#N)CC[C@@H](C(=O)OC(C)(C)C)OC3)c3cc[nH]c(=O)c23)ccc1C(=O)N1CC(C)OC(C)C1 (single isomer, unassigned) [Example 20-12] has a reported log10(IC50) of -0.35

COC(=O)N1CCC(CC#N)(n2nc(Nc3ccc4c(c3)CN(C(C)(C)C)S4(=O)=O)c3c(=O)[nH]ccc32)CC1 has a reported log10(IC50) of -0.82

CC(C)(C)OC(=O)[C@@H]1CC[C@@](CC#N)(n2nc(Nc3ccc(C(O)C(F)(F)F)cc3)c3c(=O)[nH]ccc32)CO1 (single isomer, unassigned) [Example 5-168] has a reported log10(IC50) of -0.29

N#CCC1(n2nc(Nc3ccc(C(F)(F)F)cc3)c3c(=O)[nH]ccc32)CCC(O)CC1 (stereo not drawn) has a reported log10(IC50) of 1.93

CN(C)S(=O)(=O)c1ccc(Nc2nn(C3(CC#N)CCN(Cc4ccc(-c5ccon5)cc4)CC3)c3cc[nH]c(=O)c23)cc1 has a reported log10(IC50) of -0.12

N#CCC1(n2nc(Nc3ccc([C@H](O)C(F)(F)F)cc3)c3c(=O)[nH]ccc32)CCN(c2cc(C(F)(F)F)ccn2)CC1 (single isomer, unassigned) has a reported log10(IC50) of 0.58

COC(=O)N1CCC(CC#N)(n2nc(Nc3ccc4c(c3)CN(C)S4(=O)=O)c3c(=O)[nH]ccc32)CC1 has a reported log10(IC50) of -0.24

COC1CN([C@H]2CC[C@@](CC#N)(n3nc(Nc4ccc(OC(F)(F)F)cc4)c4c(=O)[nH]ccc43)CC2)C1 has a reported log10(IC50) of 3.06

N#CC[C@@]1(n2nc(Nc3ccc([C@]4(C(F)(F)F)CCCCN4)cc3)c3c(=O)[nH]ccc32)CCOC[C@@H]1F (single isomer, unassigned) has a reported log10(IC50) of -1.40

CC(C)S(=O)(=O)c1ccc(Nc2nn([C@@]3(CC#N)CCCC[C@H]3F)c3cc[nH]c(=O)c23)cc1 has a reported log10(IC50) of -1.30

CN(C)S(=O)(=O)c1ccc(Nc2nn([C@@]3(CC#N)CCCOC3)c3cc[nH]c(=O)c23)cc1 has a reported log10(IC50) of 1.44
